From: ChEMBL document CHEMBL1122046

Entries and their measured MIC follow.
# Tested on: Streptococcus pyogenes
# Assay Remarks: Minimum inhibitory concentration against aerobic organism Streptococcus pyogenes strain 3124
# Assay type: functional
# Condition Notes: Streptococcus pyogenes; read-out: MIC
Endpoint Name: MIC (µg/mL)

molecule=Cn1nnnc1SCC1=C(C(=O)[O-])N2C(=O)[C@@H](Nc3cc[n+](COCC(F)(F)F)cc3)[C@H]2SC1 tgt="Streptococcus pyogenes" cmp=< experimental_result=0.06
molecule=Cn1nnnc1SCC1=C(C(=O)[O-])N2C(=O)[C@@H](Nc3cc[n+](CCc4ccccc4)cc3)[C@H]2SC1 tgt="Streptococcus pyogenes" cmp=< experimental_result=0.5
molecule="Cn1nnnc1SCC1=C(C(=O)[O-])N2C(=O)C(Nc3ccc(Cl)c[n+]3C)C2SC1 (configuration not stated)" tgt="Streptococcus pyogenes" cmp== experimental_result=32
molecule=Cn1nnnc1SCC1=C(C(=O)[O-])N2C(=O)[C@@H](Nc3cc[n+](CC(=O)[O-])cc3)[C@H]2SC1.[Na+] tgt="Streptococcus pyogenes" cmp== experimental_result=2
molecule=CC1(C)S[C@@H]2[C@H](NC(=O)Cc3ccccc3)C(=O)N2[C@H]1C(=O)O tgt="Streptococcus pyogenes" cmp=< experimental_result=0.39
molecule=Cn1nnnc1SCC1=C(C(=O)[O-])N2C(=O)[C@@H](Nc3cc[n+](Cc4ccccc4)cc3)[C@H]2SC1 tgt="Streptococcus pyogenes" cmp== experimental_result=0.015
molecule=CCOC(=O)C[n+]1ccc(N[C@@H]2C(=O)N3C(C(=O)[O-])=C(CSc4nnnn4C)CS[C@H]23)cc1 tgt="Streptococcus pyogenes" cmp=< experimental_result=0.5

* * *

# Test system: Proteus mirabilis
# Assay Remarks: Minimum inhibitory concentration against aerobic organism Proteus mirabilis strain 2830
# Assay type: functional
# Condition Notes: Proteus mirabilis; read-out: MIC
Endpoint Name: MIC (µg/mL)

compound=CC1(C)S[C@@H]2[C@H](NC=[N+]3CCCCCC3)C(=O)N2[C@H]1C(=O)[O-] endpoint_name=MIC cmp=> experimental_result=128
compound=O=C([O-])CSc1nnc(SCC2=C(C(=O)[O-])N3C(=O)[C@@H](Nc4cc[n+](Cc5ccccc5)cc4)[C@H]3SC2)s1.[Na+] endpoint_name=MIC cmp== experimental_result=64
compound=Cc1c[n+](C)ccc1N[C@@H]1C(=O)N2C(C(=O)[O-])=C(CSc3nnnn3C)CS[C@H]12 endpoint_name=MIC cmp== experimental_result=16
compound=CC(=O)OCC1=C(C(=O)[O-])N2C(=O)[C@@H](Nc3cc[n+](Cc4ccccc4)cc3)[C@H]2SC1 endpoint_name=MIC cmp=> experimental_result=128
compound=COc1ccc(C[n+]2ccc(N[C@@H]3C(=O)N4C(C(=O)[O-])=C(CSc5nnnn5C)CS[C@H]34)cc2)cc1 endpoint_name=MIC cmp== experimental_result=16
compound=COc1ccc(C[n+]2ccc(N[C@@H]3C(=O)N4C(C(=O)[O-])=C(CSc5nnnn5C)CS[C@H]34)cc2)cc1OC endpoint_name=MIC cmp=> experimental_result=64
compound="Cn1nnnc1SCC1=C(C(=O)[O-])N2C(=O)C(Nc3cccc[n+]3C)C2SC1 (stereo not drawn)" endpoint_name=MIC cmp== experimental_result=128
compound=CCO[n+]1ccc(N[C@@H]2C(=O)N3C(C(=O)[O-])=C(CSc4nnnn4C)CS[C@H]23)cc1 endpoint_name=MIC cmp=> experimental_result=128
compound=Cn1nnnc1SCC1=C(C(=O)[O-])N2C(=O)[C@@H](Nc3cc[n+](Cc4ccco4)cc3)[C@H]2SC1 endpoint_name=MIC cmp== experimental_result=16
compound=CN(C)CCn1nnnc1SCC1=C(C(=O)[O-])N2C(=O)[C@@H](Nc3cc[n+](Cc4ccccc4)cc3)[C@H]2SC1 endpoint_name=MIC cmp== experimental_result=128
compound=O=C([O-])C1=C(C[n+]2ccccc2)CS[C@@H]2[C@H]([N-]c3cc[n+](Cc4ccccc4)cc3)C(=O)N12 endpoint_name=MIC cmp=> experimental_result=128
compound=Cn1nnnc1SCC1=C(C(=O)[O-])N2C(=O)[C@@H](Nc3cc[n+](COCc4ccccc4)cc3)[C@H]2SC1 endpoint_name=MIC cmp=> experimental_result=128
compound=Cn1nnnc1SCC1=C(C(=O)[O-])N2C(=O)[C@@H](Nc3cc[n+](Cc4ccc(F)cc4)cc3)[C@H]2SC1 endpoint_name=MIC cmp== experimental_result=64
compound=O=C([O-])C1=CCS[C@@H]2[C@H](Nc3cc[n+](Cc4ccccc4)cc3)C(=O)N12 endpoint_name=MIC cmp=> experimental_result=128
compound=Cn1nnnc1SCC1=C(C(=O)[O-])N2C(=O)[C@@H](Nc3cc[n+](COCC(Cl)(Cl)Cl)cc3C(=O)OC(C)(C)C)[C@H]2SC1 endpoint_name=MIC cmp=> experimental_result=128
compound=O=C(Cc1cccs1)N[C@@H]1C(=O)N2C(C(=O)[O-])=C(C[n+]3ccccc3)CS[C@H]12 endpoint_name=MIC cmp== experimental_result=16
compound=Cc1nnc(SCC2=C(C(=O)[O-])N3C(=O)[C@@H](Nc4cc[n+](Cc5ccccc5)cc4)[C@H]3SC2)s1 endpoint_name=MIC cmp== experimental_result=128
compound=Cn1nnnc1SCC1=C(C(=O)[O-])N2C(=O)[C@@H](Nc3cc[n+](Cc4ccccc4)cc3)[C@H]2SC1 endpoint_name=MIC cmp== experimental_result=32
compound=COC[n+]1ccc(N[C@@H]2C(=O)N3C(C(=O)[O-])=C(CSc4nnnn4C)CS[C@H]23)cc1 endpoint_name=MIC cmp== experimental_result=64
compound=O=C([O-])C1=C(Cl)CS[C@@H]2[C@H](Nc3cc[n+](Cc4ccccc4)cc3)C(=O)N12 endpoint_name=MIC cmp=> experimental_result=128
compound=Cn1nnnc1SCC1=C(C(=O)[O-])N2C(=O)[C@@H](Nc3cc[n+](CCc4ccccc4)cc3)[C@H]2SC1 endpoint_name=MIC cmp=> experimental_result=128
compound=Cn1nnnc1SCC1=C(C(=O)[O-])N2C(=O)[C@@H](Nc3cc[n+](COCC(F)(F)F)cc3)[C@H]2SC1 endpoint_name=MIC cmp=> experimental_result=128
compound=[N-]=[N+]=NCC1=C(C(=O)[O-])N2C(=O)[C@@H](Nc3cc[n+](Cc4ccccc4)cc3)[C@H]2SC1 endpoint_name=MIC cmp=> experimental_result=128
